// pest or weed control at 62.5 g/ha lookup, one value per entry
system: giant foxtail (Setaria faberi); assay: Test G Pre-Emergence Protocol; type: in vivo; conditions: Setaria faberi, pre-emergence, 312 h, 62.5 g ai/ha, evaluated after 13 days, 100=total damage to plant, 0=no damage to plant, read-out: plant damage rating, Foxtail, Giant
Respond with the bare value in %.

CN1C[C@@H](c2ccc(C(F)(F)F)cc2)[C@H](C(=O)Nc2cccnc2Cl)C1=O (racemic) : 70
CN1C[C@@H](c2ccc(C(F)(F)F)cc2)[C@H](C(=O)Nc2cnnc(Cl)c2Cl)C1=O (racemic) : 0
CN1C[C@@H](c2ccc(C(F)(F)F)cc2)[C@H](C(=O)Nc2ccc(C#N)cc2Cl)C1=O (racemic) : 0

Looking up Cc1ccc([C@@H]2CN(C)C(=O)[C@H]2C(=O)Nc2cccc(F)c2F)cc1Cl (racemic) , I see its pest or weed control at 62.5 g/ha listed as 80

Entry source: patent US12077503B2
